# ASSAY TEXT: inhibitors of MT1-MMP promoter transcription, cell-based, luciferase reporter, luminescence (AID 618);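 also: actives suppress MT1-MMP promoter-driven transcription so potencies describe inhibitors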
# EXPERIMENTAL CONDITIONS: MT1-MMP promoter luciferase reporter cells
The campaign covered roughly 87,000 compounds. About 540 (0.62%) were called active. No rule for the calls is given here. For the sample, actives were picked, then their nearest neighbours and some compounds at random. Measured potencies and affinities stand elsewhere.
Answer with one of the outcomes Yes (active), No (inactive)

q: What outcome does the record of this test show for COc1ccccc1-c1cc(C(F)(F)F)nc(S(=O)(=O)CCCC(=O)N2CCCCC2C)n1 (stereo not given) ?
a: No

q: What outcome does the record of this test show for CCOC(=O)c1[nH]c2c(c1C)C(=O)CC(c1ccc(F)cc1)C2 (stereo not given) ?
a: Yes

q: What outcome does the record of this test show for COCCOC(=O)c1[nH]c2c(c1C)C(=O)CC(c1ccc(F)cc1)C2 (stereo not given) ?
a: No

q: What outcome does the record of this test show for O=C1C(C=Nc2ccccc2O)=C(O)c2ccccc21 ?
a: No

q: What outcome does the record of this test show for COc1ccc(S(=O)(=O)n2nc(OC(=O)C3CCCCC3)cc2N)cc1 ?
a: No

q: What outcome does the record of this test show for Cc1ccc(NC(=O)c2ccc(N3C(=O)C4CC=C(Cl)CC4C3=O)cc2)cc1 (stereo not given) ?
a: No

q: What outcome does the record of this test show for Cc1onc(-c2ccccc2)c1C(=O)Nc1cc(C(F)(F)F)ccc1N1CCOCC1 ?
a: Yes

q: What outcome does the record of this test show for COc1ccc(S(=O)(=O)Cc2ccc(C(=O)N3CCN(c4ncccn4)CC3)o2)cc1 ?
a: No

q: What outcome does the record of this test show for COc1ccc(-c2nnc(SCC(=O)N3c4ccccc4Sc4ccccc43)o2)cc1 ?
a: No

q: What outcome does the record of this test show for COc1ccc(Cl)cc1NS(=O)(=O)c1ccc(OC)c(OC)c1 ?
a: No

q: What outcome does the record of this test show for COc1cc(C2CC(=O)c3c([nH]c(C(=O)OCCOC(C)C)c3C)C2)cc(OC)c1OC (stereo not given) ?
a: No

q: What outcome does the record of this test show for Cc1csc(NC(=O)c2cc3c(s2)CCCCC3)n1 ?
a: No

q: What outcome does the record of this test show for Cc1csc(NC(=O)c2cc3c(s2)CCC3)n1 ?
a: Yes

q: What outcome does the record of this test show for CCn1c(=O)cc(SCC(=O)Nc2ccccc2N2CCN(C)CC2)c2ccccc21 ?
a: No

q: What outcome does the record of this test show for CCCOCCOC(=O)c1[nH]c2c(c1C)C(=O)CC(c1cc(OC)ccc1OC)C2 (stereo not given) ?
a: No

q: What outcome does the record of this test show for CCC(=O)Nc1ccc2c(c1)C(=O)N(C1CCCCC1)C2=O ?
a: No

q: What outcome does the record of this test show for CSCCOC(=O)c1[nH]c2c(c1C)C(=O)CC(c1ccco1)C2 (stereo not given) ?
a: Yes

q: What outcome does the record of this test show for Cc1onc(-c2ccccc2)c1C(=O)Nc1ccccc1N1CCOCC1 ?
a: No

q: What outcome does the record of this test show for CC(C)C(=O)N(Cc1cc2ccccc2[nH]c1=O)C(C)C ?
a: No

q: What outcome does the record of this test show for CN1CCN(C2=C(Cl)C(=O)C(c3cnc(N4CCCCC4)s3)=C(Cl)C2=O)CC1 ?
a: No

q: What outcome does the record of this test show for O=C(CSc1nc2ccccc2[nH]1)Nc1cc(C(F)(F)F)ccc1N1CCOCC1 ?
a: No

q: What outcome does the record of this test show for Cc1nc(NC(=O)c2cc3c(s2)CCCCC3)sc1C(=O)N(C)C ?
a: No

q: What outcome does the record of this test show for CS(=O)(=O)c1nc(-c2ccccc2)cc(C(F)(F)F)n1 ?
a: Yes

q: What outcome does the record of this test show for O=C1C/C(=C/NCc2ccccc2)C(=O)N1 ?
a: No

q: What outcome does the record of this test show for O=C(NCCCN1CCCC1=O)c1cc(=O)c2ccccc2o1 ?
a: No

q: What outcome does the record of this test show for COc1ccc(OC)c(NS(=O)(=O)c2ccc(N3CCCC3=O)cc2)c1 ?
a: Yes

q: What outcome does the record of this test show for CCOC(=O)C(C)Oc1cccc2c(=O)n(CC(=O)NCc3ccco3)ccc12 (stereo not given) ?
a: Yes

q: What outcome does the record of this test show for CN(C)c1cccc(C(=O)n2cc(C(=O)c3cc(F)ccc3O)cn2)c1 ?
a: No

q: What outcome does the record of this test show for Oc1ccc(/C=C/c2cc(O)cc(O)c2)cc1 ?
a: Yes

q: What outcome does the record of this test show for CCOC(=O)CSc1nc(-c2ccccc2)cc(C(F)(F)F)n1 ?
a: No

q: What outcome does the record of this test show for Cc1ccc2nc(SCC(=O)Nc3cc(C(F)(F)F)ccc3N3CCOCC3)[nH]c2c1 ?
a: Yes

q: What outcome does the record of this test show for CCOC(=O)COc1cccc2c(=O)n(CC(=O)NCc3ccc4c(c3)OCO4)ccc12 ?
a: No

q: What outcome does the record of this test show for COc1ccc(Cl)cc1NS(=O)(=O)c1ccc(S(=O)(=O)N2CCCC2)cc1 ?
a: No

q: What outcome does the record of this test show for C/C=C(/C(=C/C)c1ccc(O)cc1)c1ccc(O)cc1 ?
a: No

q: What outcome does the record of this test show for O=c1[nH]c(NCCO)nc2ncn(Cc3ccccc3)c12 ?
a: No

q: What outcome does the record of this test show for Cc1ccccc1NS(=O)(=O)c1ccc(N2CCCC2=O)cc1 ?
a: No

q: What outcome does the record of this test show for Cc1cccc(-n2ncc(C#N)c2N)c1 ?
a: No

q: What outcome does the record of this test show for Nc1cc(=O)[nH]c(SCc2nc3ccccc3n2Cc2ccccc2)n1 ?
a: No

q: What outcome does the record of this test show for CCOC(=O)CS(=O)(=O)c1nc(-c2ccccc2)cc(C(F)(F)F)n1 ?
a: No

q: What outcome does the record of this test show for Cc1c(C(=O)OCCOC(C)C)[nH]c2c1C(=O)CC(C)(C)C2 ?
a: No

q: What outcome does the record of this test show for CCOC(=O)Cc1csc(NC(=O)c2cc3c(s2)CCCC3)n1 ?
a: No

q: What outcome does the record of this test show for CCCOC(=O)c1[nH]c2c(c1C)C(=O)CC(c1cccs1)C2 (stereo not given) ?
a: Yes

q: What outcome does the record of this test show for CCc1nnc(NC(=O)c2cc3c(s2)CCCCC3)s1 ?
a: No

q: What outcome does the record of this test show for Cc1cc(=O)oc2cc(OCC(=O)Nc3nnc(C(C)C)s3)ccc12 ?
a: No

q: What outcome does the record of this test show for COc1ccc(-c2nc(-c3cccc(C)c3)no2)cc1OC ?
a: No
